Assay read-out pKi; system under study: Stromelysin-1 (Homo sapiens).
Sequence (P08254 whole entry): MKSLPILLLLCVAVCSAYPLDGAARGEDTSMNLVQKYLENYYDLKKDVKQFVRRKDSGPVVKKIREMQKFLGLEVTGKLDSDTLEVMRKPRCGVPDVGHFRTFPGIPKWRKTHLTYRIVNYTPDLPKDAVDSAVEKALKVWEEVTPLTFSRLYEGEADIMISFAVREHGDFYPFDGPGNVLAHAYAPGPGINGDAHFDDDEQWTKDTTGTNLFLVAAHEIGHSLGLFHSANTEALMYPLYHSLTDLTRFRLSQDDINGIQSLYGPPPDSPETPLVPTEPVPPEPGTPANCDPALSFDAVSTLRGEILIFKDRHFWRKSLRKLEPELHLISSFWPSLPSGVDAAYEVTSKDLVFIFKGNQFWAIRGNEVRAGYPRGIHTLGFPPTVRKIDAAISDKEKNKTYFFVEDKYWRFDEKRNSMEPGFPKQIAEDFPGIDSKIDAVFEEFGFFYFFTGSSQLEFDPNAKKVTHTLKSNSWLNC
pKi: −log10 of the molar value.
measured_property: pKi

O=C(C[C@@H](CCCc1ccc(Cl)cc1)C(=O)N[C@@H](CC1CCCCC1)C(=O)NCCCCN1CCOCC1)NO : 8.62

[a] Cc1ccc(CCC[C@H](CC(=O)NO)C(=O)N[C@@H](CC2CCCCC2)C(=O)NCCc2ccc(S(N)(=O)=O)cc2)cc1
[b] CCc1ccc(CCC[C@H](CC(=O)NO)C(=O)N[C@@H](CC2CCCCC2)C(=O)NCCc2ccccc2)cc1
// compare measured pKi between a and b ; output the lower one Respond with the label that goes with your answer.
b

* * *

target_under_test: Stromelysin-1 (Homo sapiens)
measured_property: Ki (nM)

Here is how some compounds turned out for Ki.
COc1ccc(CCC[C@H](CC(=O)NO)C(=O)N[C@@H](CC2CCCCC2)C(=O)NCCc2ccccc2)cc1 : 4.16
Cc1ccc(CCC[C@H](CC(=O)NO)C(=O)N[C@@H](CC2CCCCC2)C(=O)NCCN2CCOCC2)cc1 : 6.26
O=C(O)CCNC(=O)[C@H](CC1CCCCC1)NC(=O)[C@H](CCCc1ccc(Cl)cc1)CC(=O)NO : 0.8
O=C(C[C@@H](CCCc1ccc(F)cc1)C(=O)N[C@@H](CC1CCCCC1)C(=O)NCCc1ccccc1)NO : 13.5
CC(C)C[C@H](CC(=O)NO)C(=O)N[C@@H](CC(C)C)C(=O)N[C@@H](Cc1ccccc1)C(N)=O : 127
Cc1ccc(CCC[C@H](CC(=O)NO)C(=O)N[C@@H](CC2CCCCC2)C(=O)NCCCCN(C)C)cc1 : 5.87

[a] Cc1ccc(CCC[C@H](CC(=O)NO)C(=O)N[C@@H](CC2CCCCC2)C(=O)NCCCCN2CCOCC2)cc1
[b] O=C(C[C@@H](CCCc1ccccc1)C(=O)N[C@@H](CC1CCCCC1)C(=O)NCCc1ccc(S(=O)(=O)O)cc1)NO
[c] COC(=O)CCNC(=O)[C@H](CC1CCCCC1)NC(=O)[C@H](CCCc1ccc(Cl)cc1)CC(=O)NO
[d] O=C(C[C@@H](CCCc1ccc(Cl)cc1)C(=O)N[C@@H](CC1CCCCC1)C(=O)NCCC(=O)N1CCOCC1)NO
Arrange these 4 compounds in increasing order of Ki. Write out the labels following the order that was asked for.
c, d, a, b
(c: 0.96 nM, d: 1.38 nM, a: 2.61 nM, b: 8.15 nM)

* * *

target_under_test: 72 kDa type IV collagenase (Homo sapiens)
Sequence (P08253 whole entry): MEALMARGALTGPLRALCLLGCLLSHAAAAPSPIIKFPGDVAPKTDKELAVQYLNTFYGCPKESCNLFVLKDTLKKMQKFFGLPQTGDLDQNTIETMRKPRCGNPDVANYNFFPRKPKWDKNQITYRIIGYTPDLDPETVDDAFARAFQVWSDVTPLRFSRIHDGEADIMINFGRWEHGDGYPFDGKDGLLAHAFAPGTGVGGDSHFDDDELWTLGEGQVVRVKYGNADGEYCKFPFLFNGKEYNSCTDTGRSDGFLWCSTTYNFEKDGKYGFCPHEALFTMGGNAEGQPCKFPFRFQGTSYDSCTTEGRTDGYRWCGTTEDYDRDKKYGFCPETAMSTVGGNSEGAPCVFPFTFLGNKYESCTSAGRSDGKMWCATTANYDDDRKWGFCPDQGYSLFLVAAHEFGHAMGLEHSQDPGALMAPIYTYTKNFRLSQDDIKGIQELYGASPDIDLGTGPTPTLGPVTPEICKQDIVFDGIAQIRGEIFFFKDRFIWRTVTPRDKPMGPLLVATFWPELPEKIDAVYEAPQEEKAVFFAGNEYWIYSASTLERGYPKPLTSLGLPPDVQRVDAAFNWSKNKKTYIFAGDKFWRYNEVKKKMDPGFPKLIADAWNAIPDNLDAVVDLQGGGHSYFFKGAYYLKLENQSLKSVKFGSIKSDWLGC
measured_property: Ki (nM)

[P] Cc1ccc(CCC[C@H](CC(=O)NO)C(=O)N[C@@H](CC2CCCCC2)C(=O)NCCNS(=O)(=O)N2CCOCC2)cc1
[Q] O=C(C[C@@H](CCCc1ccc(Cl)cc1)C(=O)N[C@@H](CC1CCCCC1)C(=O)NCCC(=O)N1CCOCC1)NO
[R] CN(C)CCCCNC(=O)[C@H](CC1CCCCC1)NC(=O)[C@H](CCCc1ccc(Cl)cc1)CC(=O)NO
[S] CC(C)C[C@H](CC(=O)NO)C(=O)N[C@@H](CC1CCCCC1)C(=O)NCCc1ccccc1
[T] O=C(C[C@@H](CCc1ccccc1)C(=O)N[C@@H](CC1CCCCC1)C(=O)NCCc1ccccc1)NO
Rank the items above by Ki, largest value first. # the answer lists labels in the order requested
T, S, R, Q, P

* * *

target_under_test: Interstitial collagenase (Homo sapiens)
Sequence (P03956 whole entry): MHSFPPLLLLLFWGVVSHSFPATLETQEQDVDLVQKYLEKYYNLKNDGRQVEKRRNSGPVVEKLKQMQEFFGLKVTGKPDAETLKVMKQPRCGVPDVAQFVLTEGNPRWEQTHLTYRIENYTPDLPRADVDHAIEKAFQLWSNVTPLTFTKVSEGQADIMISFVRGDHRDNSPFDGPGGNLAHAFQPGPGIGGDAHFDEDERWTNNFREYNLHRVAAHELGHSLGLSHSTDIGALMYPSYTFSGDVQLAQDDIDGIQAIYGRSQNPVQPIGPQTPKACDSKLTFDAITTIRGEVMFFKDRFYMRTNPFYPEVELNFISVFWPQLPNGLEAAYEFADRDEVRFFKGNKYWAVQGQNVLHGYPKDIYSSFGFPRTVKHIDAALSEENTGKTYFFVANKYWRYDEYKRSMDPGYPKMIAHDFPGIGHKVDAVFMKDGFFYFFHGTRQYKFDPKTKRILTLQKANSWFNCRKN
assay_text: Inhibition of the collagenase enzyme.
measured_property: Ki (nM)

Cc1ccc(CCC[C@H](CC(=O)NO)C(=O)N[C@@H](CC2CCCCC2)C(=O)NCCc2ccc(S(N)(=O)=O)cc2)cc1 : 329
O=C(C[C@@H](CCCc1ccc(F)cc1)C(=O)N[C@@H](CC1CCCCC1)C(=O)NCCc1ccccc1)NO : 296
Cc1ccc(CCC[C@H](CC(=O)NO)C(=O)N[C@@H](CC2CCCCC2)C(=O)NCCN2CCOCC2)cc1 : 455
O=C(C[C@@H](CCCc1ccc(Cl)cc1)C(=O)N[C@@H](CC1CCCCC1)C(=O)NCCC(=O)N1CCOCC1)NO : 319

[P] COC(=O)CCNC(=O)[C@H](CC1CCCCC1)NC(=O)[C@H](CCCc1ccc(Cl)cc1)CC(=O)NO
[Q] O=C(C[C@@H](CCCc1ccc(Cl)cc1)C(=O)N[C@@H](CC1CCCCC1)C(=O)NCCCCN1CCOCC1)NO
From the recorded data, which exceeds the other in Ki: P or Q ? Selection: enter the item's label.
Q
(Q: 313 nM, P: 135 nM)

* * *

target_under_test: 72 kDa type IV collagenase (Homo sapiens)
pKi: −log10 of the molar value.
measured_property: pKi

The cases that follow already have their pKi on record.
Cc1ccc(CCC[C@H](CC(=O)NO)C(=O)N[C@@H](CC2CCCCC2)C(=O)NCCN2CCOCC2)cc1 : 11.00
Cc1ccc(CCC[C@H](CC(=O)NO)C(=O)N[C@@H](CC2CCCCC2)C(=O)NCCc2ccccc2)cc1 : 10.10
O=C(C[C@@H](CCCCc1ccccc1)C(=O)N[C@@H](CC1CCCCC1)C(=O)NCCc1ccccc1)NO : 9.60

[I] O=C(O)CCNC(=O)[C@H](CC1CCCCC1)NC(=O)[C@H](CCCc1ccc(Cl)cc1)CC(=O)NO
[II] Cc1ccc(CCC[C@H](CC(=O)NO)C(=O)N[C@@H](CC2CCCCC2)C(=O)NCCCCN2CCOCC2)cc1
I'm curious, which of these has a smaller pKi number: I or II ? Identify your selection by its label.
II

[A] O=C(C[C@@H](CCCc1ccccc1)C(=O)N[C@@H](CC1CCCCC1)C(=O)NCCc1ccccc1)NO
[B] O=C(C[C@@H](CCCc1ccc(Cl)cc1)C(=O)N[C@@H](CC1CCCCC1)C(=O)NCCNS(=O)(=O)N1CCOCC1)NO
// returns A or B , whichever has the lower pKi Response format: the label of the selected entry.
A

[I] O=C(C[C@@H](CCCc1ccc(F)cc1)C(=O)N[C@@H](CC1CCCCC1)C(=O)NCCc1ccccc1)NO
[II] Cc1ccc(CCC[C@H](CC(=O)NO)C(=O)N[C@@H](CC2CCCCC2)C(=O)NCCc2ccc(S(N)(=O)=O)cc2)cc1
For the pair I and II , which member has the lower pKi number? Mark your selection by writing its label.
I

All values here come from ChEMBL document CHEMBL1128021.
